These measurements were taken from ChEMBL document CHEMBL6092209.

The entries below are paired with their reported log10(GI50).
- System: Panel NCI-60 (60 carcinoma cell lines)
- Method notes: Growth inhibition of human Panel NCI-60 (60 carcinoma cell lines) cells
- Format: functional
Could you please treat all values as log10 of GI50 in µM?

Compound structure	log10(GI50)
O=C1C2=C3C4=[N+](CCc5c[nH]c1c54)[C@@H]1C(=O)C=C4S[C@@H](C[C@@]43[C@H]1O)N2	-0.10
O=C1C2=C3C4=[N+](CCc5c[nH]c1c54)[C@H]1C[C@@]34C[C@@H](N2)SC4=CC1=O	-0.10

Value of measured log10(GI50) for the entry `COC(=O)CN[C@H]1[C@H]2C(=O)C=C3S[C@H]4C[C@]31C1=C(N4)C(=O)c3[nH]cc4c3C1=[N+]2CC4` : 0.39

Notebook: `O=C1C=C(S[C@H]2[C@H]3C(=O)C=C4S[C@H]5C[C@]42C2=C(N5)C(=O)c4[nH]cc5c4C2=[N+]3CC5)[C@]2(C=C1Br)CCNC1=C2C2=NCCc3c[nH]c(c32)C1=O` , log10(GI50) read as 0.68

Measured log10(GI50) of `COc1cccc2c1C(=O)c1c(O)c3c(c(O)c1C2=O)C[C@@](O)(C(=O)CO)C[C@@H]3O[C@H]1C[C@H](N)[C@H](O)[C@H](C)O1` : -0.92

Looking up `O=C(O)CN[C@H]1[C@H]2C(=O)C=C3S[C@H]4C[C@]31C1=C(N4)C(=O)c3[nH]cc4c3C1=[N+]2CC4` , I see its log10(GI50) listed as 1.23
